- TEST SUMMARY: Liquid-liquid distribution coefficient of cyclohexene at 120° C. and solvent effect index
- Assay type: physicochemical
- CONDITION LABEL: molar fraction in oil phase/aqueous phase, cyclohexene/cyclohexanol/organic solvent/water 56.7/13.3/30/100 by weight
QUANTITY KIND: Distribution coefficient of cyclohexene
Please give the numeric answer without any surrounding text.

Before answering, review these 3 worked examples.
CC1=CC(=O)CC(C)(C)C1 :: 1884
OCCOc1ccccc1 :: 1681
CC1CC(=O)CC(C)(C)C1 (stereo not shown) :: 1929

Please find the next molecule below.
Ask: Consider the molecule OCCc1ccccc1 and give its measured Distribution coefficient of cyclohexene.
Reply: 1846
